Cited source: patent WO2025083273A1

Target: T1, recombinant human DR3/TNFRSF25 Fc chimera (human, UniProt Q93038 25-199)
T1 construct: extracellular domain; bought (R&D Systems); also called DR3-Fc; hDR3Fc chimera; not shown: human IgG1 Fc
T1 sequence (looked up): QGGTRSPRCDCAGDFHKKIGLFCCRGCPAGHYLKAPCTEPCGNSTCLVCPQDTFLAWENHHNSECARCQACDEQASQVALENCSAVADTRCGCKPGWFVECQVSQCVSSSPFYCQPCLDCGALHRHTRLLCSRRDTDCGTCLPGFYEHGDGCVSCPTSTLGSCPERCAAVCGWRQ
Assay: HTRF epitope competition on DR3-Fc; competitor DyLight 650 labelled B9 IgG; mean ± SD of three experiments
Recorded pIC50, one value per entry.
# pIC50 = -log10(concentration in molar units)

VHg6/VLg13 (antibody, human IgG1, V domains shown, human IgG1) VH: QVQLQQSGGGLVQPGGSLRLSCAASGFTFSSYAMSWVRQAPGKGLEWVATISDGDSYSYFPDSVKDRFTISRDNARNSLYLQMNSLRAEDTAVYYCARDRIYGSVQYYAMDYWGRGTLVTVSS VL: DIQMTQSPSSLSASVGDRVTITCRASESVEFSGTSLMQWYQQKPGKAPKLLIYAASNVESGVPSRFSGSGSGTDFTFTISSLQPEDIATYYCQQSRKLPYTFGQGTKLEIK	9.46
VHg6/VLg11 (antibody, human IgG1, V domains shown, human IgG1) VH: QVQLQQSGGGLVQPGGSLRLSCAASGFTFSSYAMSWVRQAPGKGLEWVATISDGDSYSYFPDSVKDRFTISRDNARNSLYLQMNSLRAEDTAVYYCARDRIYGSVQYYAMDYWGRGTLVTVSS VL: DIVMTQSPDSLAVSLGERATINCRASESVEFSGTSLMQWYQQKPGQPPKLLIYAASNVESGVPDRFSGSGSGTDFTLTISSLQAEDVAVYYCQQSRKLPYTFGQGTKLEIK	9.54
B9-hIgG1 (antibody, V domains shown, chimeric: mouse B9 variable regions, human IgG1; also called B9-H1; Non-humanised B9) VH: EVQLVESGGGLVKPGGSLKLSCSASGFTFSSYAMSWVRQTPEKRLEWVATISDGDSYSYFPDSVKDRFIISRDNAKNNLFLQMSHLRSEDTAMYYCTRDRIYGSVQYYAMDYWGQGTSVTVSS VL: DIVLTQSPASLAVSLGQRATISCRASESVEFSGTSLMQWYQQRPGLPPKLLIYAASNVESGVPARFSGSGSGTDFSLNIHPVEEDDIAMYFCQQSRKLPYTFGGGTKLEIN	9.60

Let us move to another entry and its pIC50.
Query (binder): VHg1/VLg11 (antibody, human IgG1, V domains shown, human IgG1; also called H1L11; VHg1/VL11) VH: QVQLVQSGGGLVQPGGSLRLSCAASGFTFSSYAMSWVRQAPGKGLEWVSTISDGDSYSYFPDSVKDRFTISRDNSKNTLYLQMNSLRAEDTSVYYCARDRIYGSVQYYAMDYWGQGTLVTVSS VL: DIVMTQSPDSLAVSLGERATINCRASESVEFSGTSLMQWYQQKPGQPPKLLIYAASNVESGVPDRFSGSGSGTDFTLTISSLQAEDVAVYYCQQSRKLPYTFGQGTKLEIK ; field requested: pIC50
9.35
